TARGET OF ASSAY: human TRPA1 (Homo sapiens (Human), UniProt O75762)
Sequence (O75762 whole entry): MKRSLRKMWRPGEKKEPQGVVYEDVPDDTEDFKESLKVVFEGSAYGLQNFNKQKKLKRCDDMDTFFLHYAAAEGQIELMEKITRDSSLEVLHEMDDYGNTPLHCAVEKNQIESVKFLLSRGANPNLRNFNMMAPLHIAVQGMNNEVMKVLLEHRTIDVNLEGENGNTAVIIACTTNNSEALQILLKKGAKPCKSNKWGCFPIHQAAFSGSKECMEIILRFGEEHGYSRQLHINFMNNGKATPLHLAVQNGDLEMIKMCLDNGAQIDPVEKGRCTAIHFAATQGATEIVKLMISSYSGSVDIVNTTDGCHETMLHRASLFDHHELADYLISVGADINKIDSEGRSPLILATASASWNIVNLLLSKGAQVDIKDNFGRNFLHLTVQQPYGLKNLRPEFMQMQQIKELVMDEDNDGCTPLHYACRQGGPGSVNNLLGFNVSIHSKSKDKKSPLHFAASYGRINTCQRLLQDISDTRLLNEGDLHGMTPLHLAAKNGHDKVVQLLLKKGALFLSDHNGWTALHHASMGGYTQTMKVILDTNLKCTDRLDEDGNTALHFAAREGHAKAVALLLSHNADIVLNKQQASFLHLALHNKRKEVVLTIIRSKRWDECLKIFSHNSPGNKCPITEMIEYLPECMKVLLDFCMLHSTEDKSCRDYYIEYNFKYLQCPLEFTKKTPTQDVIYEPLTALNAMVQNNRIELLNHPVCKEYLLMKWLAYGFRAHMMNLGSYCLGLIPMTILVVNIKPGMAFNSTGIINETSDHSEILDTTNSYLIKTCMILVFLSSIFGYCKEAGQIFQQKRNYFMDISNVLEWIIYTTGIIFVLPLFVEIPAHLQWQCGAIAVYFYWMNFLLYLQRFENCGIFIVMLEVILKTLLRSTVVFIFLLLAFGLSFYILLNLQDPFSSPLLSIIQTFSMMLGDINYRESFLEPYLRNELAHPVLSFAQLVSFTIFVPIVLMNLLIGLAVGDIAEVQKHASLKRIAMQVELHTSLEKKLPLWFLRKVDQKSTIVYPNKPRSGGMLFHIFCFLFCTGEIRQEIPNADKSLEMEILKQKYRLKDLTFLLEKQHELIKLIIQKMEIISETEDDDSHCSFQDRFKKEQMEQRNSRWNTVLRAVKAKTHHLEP
ASSAY NAME: Measurement of TRPA1 antagonist activity (intracellular calcium increase induced by allylisothiocyanate in 293T cells transfected with human TRPA1)
CONDITIONS: 293T cells expressing human TRPA1, allylisothiocyanate stimulation, FLIPR Calcium4 fluorescence; read-out: hTRPA1 IC50
REPORTED PROPERTY: IC50 (nM)
Lab book: enter the figure in nM, no units written.

Problem: Look at this molecule and give its reported IC50. `O=C(NCc1cn(-c2ccc(C(F)(F)F)cc2)c(=O)n(C2CCOCC2)c1=O)[C@@H]1CCCN1S(=O)(=O)c1cc2ccccc2o1`
Result: 140

Problem: Which IC50 value is on record for `CC(C)n1c(=O)c(CNC(=O)[C@@H]2[C@@H](O)CCN2S(=O)(=O)c2cc3cc(F)ccc3o2)cn(-c2ccc(C(F)(F)F)cn2)c1=O` ?
Result: 160

Problem: Please give the measured IC50 for this molecule: `CC(C)n1cc(CNC(=O)[C@@H]2CCCN2S(=O)(=O)c2cc3cnccc3o2)cc(-c2ccc(C(F)(F)F)cc2)c1=O`
Result: 98

Problem: What IC50 value was documented for this molecule, `O=C(NCc1ccc(=O)n(-c2ccc(C(F)(F)F)cc2)c1)[C@@H]1CCCN1S(=O)(=O)c1cc2ccccc2o1` ?
Result: 160

Problem: Requested read-out: IC50. Entry: `CC(C)n1cc(-c2ccc(C(F)(F)F)cc2)cc(CNC(=O)[C@@H]2CCCN2S(=O)(=O)c2cc3ccccc3o2)c1=O`
Result: 79

Problem: Given the entry `CC(C)n1c(=O)c(CNC(=O)[C@@H]2CCCN2S(=O)(=O)c2cc3ccccc3o2)cn(-c2ccc(Cl)cc2)c1=O` , report its measured IC50.
Result: 85
